src = PubChem BioAssay

# PROTOCOL TEXT: small-molecule binders of probe aNOTCH2, primary screen, biochemical, small-molecule microarray, 635/667 nm fluorescence (AID 1121);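 further: score merges feature fluorescence read at 667 nm with its signal to noise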
# CONDITION DESCRIPTION: higher = more signal
PROPERTY LABEL: composite z-score

COMPOUND	RESULT
O=C1OCCC=C[C@H]2OC34C=CCN(c5ccc(Cl)cc5)C(=O)[C@H]3N(CCO)C(=O)[C@@H]4C12 (some centres not stated)	-0.189
CC(C)C[C@H]1NC(=O)[C@H](Cc2ccccc2)NC(=O)[C@@]23C(=O)N[C@@H](Cc4ccccc4)C2[C@H](C)[C@@]2(C)O[C@H]2C3/C=C/C/C=C\CNC1=O (some centres not stated)	-0.153
COc1cc2c(cc1O)C(C1CC1)N(Cc1ccc([N+](=O)[O-])o1)CC2 (configuration not stated)	-0.0826
CO[C@H]1O[C@H](CO)[C@@H](OC(=O)Nc2ccc(C(F)(F)F)cc2)[C@H](OC(=O)Nc2ccccc2-c2ccccc2)[C@@H]1OC(=O)Nc1ccccc1-c1ccccc1	-0.0496
CCc1cccc(NC(=O)O[C@H]2[C@H](OC(=O)Nc3ccc4c(c3)OCO4)[C@H](OC(=O)Nc3ccc4c(c3)OCO4)[C@@H](OC)O[C@@H]2CO)c1	0.817
CC(C)C(=C=CC[C@@H](O)c1cccc(OCCO)c1)CCO	-0.0519
CN1C(=O)C2C(C1=O)C1C=C(c3ccc(CO)cc3)C2C(c2cccs2)N1C (configuration not stated)	-0.146
